# key: entry, value: TGI
# Tested on: OVCAR-5 ovarian
# assay: NCI tumour cell line growth inhibition, 48 h
recorded_metric: TGI (µM)

1) COc1cc2c(cc1Oc1c(Oc3c(O)c(OC)cc4c3C(CC(C)C)N(C)CC4)c(OC)cc3c1C(CC(C)C)N(C)CC3)C(CC(C)C)N(C)CC2 (stereo unspecified)    17.7
2) C=CC(=O)N1C/C(=C\c2ccc([N+](=O)[O-])cc2)C(=O)/C(=C/c2ccc([N+](=O)[O-])cc2)C1    1.18
3) Cc1ccc2c(c1)C(=O)c1c-2c(OCCCN(C)C)nc2ccccc12    3.65
4) COC(=O)CNC(=O)CCC(C)[C@H]1CCC2C3C(C[C@H](OC(C)=O)[C@@]21C)[C@@]1(C)CCC2(C[C@H]1C[C@H]3OC(C)=O)OOC1(CC[C@]3(C)C4C[C@H](OC(C)=O)[C@@]5(C)C(CC[C@@H]5C(C)CCC(=O)NCC(=O)OC)C4[C@H](OC(C)=O)C[C@@H]3C1)OO2 (stereo partly specified)    9.96
5) COC(=O)[C@]1(c2cc3ccccc3[nH]2)CC2CN(C(=O)OCc3ccccc3)C1CC2=O (stereo partly specified)    27.9
6) CCCCCCCC/C=C1\CCC(CN2CCOCC2)C1=O (stereo unspecified)    36.5
7) COc1ccc(-c2ncn(C[Si](C)(C)C)c2-c2ccc(OC)cc2)cc1    18.3
8) Cn1c(-c2ccccc2)c(/C=C/C2=[N+](C)c3ccccc3C2(C)C)c2ccccc21    20
9) CC(C)C(=O)c1c(C(F)(F)F)n([O-])c2cc(F)c(F)cc2[n+]1=O    2.58
